Target: Bile acid receptor (Homo sapiens)
Assay: ATG_IR1_CIS: Attagene CIS-FACTORIAL HepG2 Assay for human Nuclear Receptor Subfamily 1 Group H Member 4 (NR1H4), IR1 submotif (AID 2282946)
Settings: IR1 reporter transcription, actives raise or lower the signal
Calls of active or inactive are those of the source. Rule for the calls: active = hit-call score of the fitted dose curve at least 0.9, where 1 is the maximum; inactive = score below 0.9.
Please state which outcome applies, choosing from y (active), n (inactive)

Look over these answered cases.
{"columns": ["compound", "assigned.label"],
 "data": [
  ["CCCc1c(OCCCCc2nn[nH]n2)ccc(C(C)=O)c1O", "n"],
  ["CCCCCC[C@@H](O)C/C=C\\CCCCCCCC(=O)O", "y"],
  ["CC(C)CC(=O)CC(C)CC(C)C (configuration not stated)", "n"],
  ["C=C(C)C(=O)OCC1CCCO1 (configuration not stated)", "n"]
]}

Ask: Please state the recorded outcome for this compound: O=C(OCc1ccccc1)c1ccccc1
Reply: n

Ask: Please state the recorded outcome for this compound: C/C=C(\C)C(=O)OCC/C=C\CC
Reply: n

Ask: Please state the recorded outcome for this compound: CNC[C@H](O)[C@@H](O)[C@H](O)[C@H](O)CO
Reply: n

Ask: Please state the recorded outcome for this compound: Oc1cccc2ccccc12
Reply: n

Ask: Please state the recorded outcome for this compound: Clc1ccccn1
Reply: n

Ask: Please state the recorded outcome for this compound: O=C(CC(C(=O)OC1CCCCC1)S(=O)(=O)O)OC1CCCCC1 (configuration not stated)
Reply: n

Ask: Please state the recorded outcome for this compound: CC/C=C/CCO
Reply: n

Ask: Please state the recorded outcome for this compound: NC(=O)c1ccc([N+](=O)[O-])cc1Cl
Reply: n
